Values were extracted from PubChem BioAssay (EPA / NIEHS).

experiment: BSK_3C_Proliferation: Cell Proliferation Assessment in the BioMAP Diversity Plus: 3C Assay (AID 2283006); conditions: primary human endothelial cells (HUVEC)
The source made the active and inactive calls. Rule for the calls: active = hit-call score of the fitted dose curve at least 0.9, where 1 is the maximum; inactive = score below 0.9.
Your reply should match one of these outcome classes. active, inactive

## Input Identify the outcome logged in this assay for the compound shown: C=C(C)C(=O)OCC(CC)(COC(=O)C(=C)C)COC(=O)C(=C)C
## Output active

## Input Identify the outcome logged in this assay for the compound shown: c1ccc(CCc2ccccc2)cc1
## Output active

## Input Identify the outcome logged in this assay for the compound shown: COc1ccc(CCN2CCC(Nc3nc4ccccc4n3Cc3ccc(F)cc3)CC2)cc1
## Output active

## Input Identify the outcome logged in this assay for the compound shown: O=C1OC2(c3ccccc31)c1ccc(O)c(Br)c1Oc1c2ccc(O)c1Br
## Output active

## Input Identify the outcome logged in this assay for the compound shown: CC(=O)Nc1ccc(C(=O)CCl)cc1
## Output active

## Input Identify the outcome logged in this assay for the compound shown: c1ccc(Oc2ccccc2)cc1
## Output active

## Input Identify the outcome logged in this assay for the compound shown: COc1cc(Cl)c(OC)cc1N
## Output inactive

## Input Identify the outcome logged in this assay for the compound shown: CCCCCC(C=O)=Cc1ccccc1
## Output active

## Input Identify the outcome logged in this assay for the compound shown: CC=Cc1ccc(OCC)c(O)c1
## Output inactive

## Input Identify the outcome logged in this assay for the compound shown: CC(C=O)Cc1ccc(C(C)(C)C)cc1 (configuration not stated)
## Output active

## Input Identify the outcome logged in this assay for the compound shown: CC1(C)C2=CCCC(C)(C)[C@]23CC[C@H]1C3
## Output active

## Input Identify the outcome logged in this assay for the compound shown: CC(=O)c1c(C)c([N+](=O)[O-])c(C(C)(C)C)c([N+](=O)[O-])c1C
## Output inactive

* * *

assay: ATG_CRE_CIS: Attagene CIS-FACTORIAL HepG2 Assay for human cAMP Responsive Element (CRE) binding protein 3 (AID 2282926); conditions: HepG2 CRE cis-reporter, Attagene multiplexed mRNA; actives raise or lower the signal
Activity calls are given as the source filed them. Rule for the calls: active = hit-call score of the fitted dose curve at least 0.9, where 1 is the maximum; inactive = score below 0.9.
Quantity Name: AC50

Molecule | AC50
O=C(c1ccccc1)C(O)c1ccccc1 (stereo not given) | inactive
Cc1ccc2c(c1)C(=O)OC2=O | inactive
O=P(O)(O)O | inactive
CCCCCCCCC=CCCCCCCCC1=NCCN1CCO | inactive

## Input # return recorded AC50 for entry CCCCCCCCSCCO
## Output 100 µM (active)

## Input # return recorded AC50 for entry C#CC(C)N(C)C(=O)Nc1ccc(Cl)cc1 (stereo not given)
## Output inactive

## Input # return recorded AC50 for entry CSc1c(Cl)c(Cl)c(Cl)c(Cl)c1Cl
## Output 169 µM (active)

## Input # return recorded AC50 for entry CCCCCCCCCCCCN1CCCCCC1=O
## Output inactive

## Input # return recorded AC50 for entry COc1ccc(N)c([N+](=O)[O-])c1
## Output inactive

## Input # return recorded AC50 for entry Cc1cc(CCC(=O)OCCOCCOCCOC(=O)CCc2cc(C)c(O)c(C(C)(C)C)c2)cc(C(C)(C)C)c1O
## Output inactive

* * *

experiment: ATG_ISRE_CIS: Attagene CIS-FACTORIAL HepG2 Assay for human Interferon Regulatory Factor 1 (IRF1) binding to an Interferon-Stimulated Response Element (ISRE) (AID 2282948); settings: HepG2 ISRE cis-reporter (Attagene), mRNA transcription readout; actives raise or lower the signal
Activity calls are given as the source filed them. How the source made its calls: active means hit-call score of the fitted dose curve at least 0.9, where 1 is the maximum; inactive means score below 0.9.
Your reply should match one of these outcome classes. active, inactive

## Input Identify the outcome logged in this assay for the compound shown: CCN(CC)C(=O)N(CC)CC
## Output inactive

## Input Identify the outcome logged in this assay for the compound shown: CCCCN(CCCC)C(=O)N(CCCC)CCCC
## Output inactive

## Input Identify the outcome logged in this assay for the compound shown: Nc1ccccc1[N+](=O)[O-]
## Output inactive

## Input Identify the outcome logged in this assay for the compound shown: C=C[Si]1(C)O[Si](C)(C=C)O[Si](C)(C=C)O[Si](C)(C=C)O1 (centres undefined)
## Output inactive

## Input Identify the outcome logged in this assay for the compound shown: CS(C)=O
## Output inactive

## Input Identify the outcome logged in this assay for the compound shown: O=[N+]([O-])c1cccc(Cl)c1
## Output inactive

## Input Identify the outcome logged in this assay for the compound shown: Cc1cc(C)nc(NS(=O)(=O)c2ccc(N)cc2)n1
## Output inactive

## Input Identify the outcome logged in this assay for the compound shown: CC=CC=CCOC(=O)C(C)C
## Output active

## Input Identify the outcome logged in this assay for the compound shown: CC(C)CCCCCCCCCCCCCCC(=O)O
## Output inactive

* * *

target: Nuclear receptor subfamily 1 group I member 2 (Homo sapiens); experiment: ATG_PXR_TRANS: Attagene TRANS-FACTORIAL HepG2 Assay for human Pregnane X Receptor (PXR) (AID 2283008)
Results filed as inconclusive are left out. Activity calls are given as the source filed them. How the source made its calls: active means hit-call score of the fitted dose curve at least 0.9, where 1 is the maximum; inconclusive means response in the unintended direction; inactive means score below 0.9.
Your reply should match one of these outcome classes. active, inactive

## Input Identify the outcome logged in this assay for the compound shown: CC(C)c1ccccc1O
## Output inactive

## Input Identify the outcome logged in this assay for the compound shown: CCCCCCOC(=O)CCC
## Output active

## Input Identify the outcome logged in this assay for the compound shown: O=C1CCCC=CCCCCCCCCCC1
## Output active

## Input Identify the outcome logged in this assay for the compound shown: CSc1c(Cl)c(Cl)c(Cl)c(Cl)c1Cl
## Output active

## Input Identify the outcome logged in this assay for the compound shown: Cc1ccc(N)c(S(=O)(=O)O)c1
## Output inactive

## Input Identify the outcome logged in this assay for the compound shown: CC(C)=CCCC(C)CC(=O)O (stereo not given)
## Output inactive

## Input Identify the outcome logged in this assay for the compound shown: CCCCCCCCCCCCCCCC(=O)OC/C=C(C)/C=C/C=C(C)/C=C/C1=C(C)CCCC1(C)C
## Output active

## Input Identify the outcome logged in this assay for the compound shown: CC(C)CCCCCCc1ccc(OCCOCCO)cc1
## Output inactive

## Input Identify the outcome logged in this assay for the compound shown: C[C@H]1O[C@@H](O[C@H]2[C@@H](O)C[C@H](O[C@H]3[C@@H](O)C[C@H](O[C@H]4CC[C@@]5(C)[C@H](CC[C@@H]6[C@@H]5C[C@@H](O)[C@]5(C)[C@@H](C7=CC(=O)OC7)CC[C@]65O)C4)O[C@@H]3C)O[C@@H]2C)C[C@H](O)[C@@H]1O
## Output inactive

## Input Identify the outcome logged in this assay for the compound shown: O=C(O)CCCCCCCCCCCC(=O)O
## Output inactive

## Input Identify the outcome logged in this assay for the compound shown: CCCC1O[C@@H]2C[C@H]3[C@@H]4CCC5=CC(=O)C=C[C@]5(C)[C@H]4[C@@H](O)C[C@]3(C)[C@]2(C(=O)CO)O1 (stereo not given in full)
## Output active

## Input Identify the outcome logged in this assay for the compound shown: Cc1c(Cl)cccc1[N+](=O)[O-]
## Output inactive

## Input Identify the outcome logged in this assay for the compound shown: OC[C@H]1O[C@@H](Oc2ccc(O)cc2)[C@H](O)[C@@H](O)[C@@H]1O
## Output inactive

## Input Identify the outcome logged in this assay for the compound shown: CN(C)C(=O)Nc1ccc(Oc2ccc(Cl)cc2)cc1
## Output active

## Input Identify the outcome logged in this assay for the compound shown: C[Si]1(C)O[Si](C)(C)O[Si](C)(C)O1
## Output inactive

## Input Identify the outcome logged in this assay for the compound shown: CSCCC=O
## Output active

## Input Identify the outcome logged in this assay for the compound shown: CCOC(=O)CCc1ccccc1
## Output inactive

## Input Identify the outcome logged in this assay for the compound shown: C=Cc1ccc(C)cc1
## Output inactive

## Input Identify the outcome logged in this assay for the compound shown: Nc1ccc(Cl)c([N+](=O)[O-])c1
## Output inactive

## Input Identify the outcome logged in this assay for the compound shown: c1ccc2cc(Nc3ccc(Nc4ccc5ccccc5c4)cc3)ccc2c1
## Output inactive

## Input Identify the outcome logged in this assay for the compound shown: COC(C)(C)CC(C)=O
## Output inactive

## Input Identify the outcome logged in this assay for the compound shown: C#CC(C)N(C)C(=O)Nc1ccc(Cl)cc1 (stereo not given)
## Output inactive

## Input Identify the outcome logged in this assay for the compound shown: NC1CCCCC1N (stereo not given)
## Output inactive

## Input Identify the outcome logged in this assay for the compound shown: C=Cc1ccncc1
## Output inactive

## Input Identify the outcome logged in this assay for the compound shown: CC=CC=CCOC(=O)C(C)C
## Output inactive

## Input Identify the outcome logged in this assay for the compound shown: NCc1ccco1
## Output inactive

## Input Identify the outcome logged in this assay for the compound shown: CCc1ncc(C)[nH]1
## Output inactive

## Input Identify the outcome logged in this assay for the compound shown: COc1cc(Cl)c(OC)cc1N
## Output inactive

## Input Identify the outcome logged in this assay for the compound shown: CC1(C)COCN1
## Output inactive

## Input Identify the outcome logged in this assay for the compound shown: CCC(C)c1cc([N+](=O)[O-])cc([N+](=O)[O-])c1OC(=O)OC(C)C (stereo not given)
## Output active

## Input Identify the outcome logged in this assay for the compound shown: CCCCN(CCCC)C(=O)N(CCCC)CCCC
## Output active

## Input Identify the outcome logged in this assay for the compound shown: CC(=O)Nc1ccc(C(=O)CCl)cc1
## Output inactive

## Input Identify the outcome logged in this assay for the compound shown: CCCCCCCC/C=C\CCCCCCCC(=O)OCC
## Output inactive

## Input Identify the outcome logged in this assay for the compound shown: O=C1c2ccccc2C(=O)c2c(O)ccc(O)c21
## Output active

## Input Identify the outcome logged in this assay for the compound shown: CCOC(=O)CC(C)O (stereo not given)
## Output inactive
